target: M4 muscarinic receptor (Homo sapiens); construct: expressed in transfected cells; host or cells: CHO cells (M4-CHO, under puromycin, zeocin and blasticidin selection); test: Functional mobilization of intracellular calcium (FLIPR, Fluo-3), M4-CHO cells; format: cell-based; details: compound nos. 1-454; 100% efficacy is the maximum response obtained with the Carbachol control; read-out: M4 Efficacy
Sequence (P08173 whole entry): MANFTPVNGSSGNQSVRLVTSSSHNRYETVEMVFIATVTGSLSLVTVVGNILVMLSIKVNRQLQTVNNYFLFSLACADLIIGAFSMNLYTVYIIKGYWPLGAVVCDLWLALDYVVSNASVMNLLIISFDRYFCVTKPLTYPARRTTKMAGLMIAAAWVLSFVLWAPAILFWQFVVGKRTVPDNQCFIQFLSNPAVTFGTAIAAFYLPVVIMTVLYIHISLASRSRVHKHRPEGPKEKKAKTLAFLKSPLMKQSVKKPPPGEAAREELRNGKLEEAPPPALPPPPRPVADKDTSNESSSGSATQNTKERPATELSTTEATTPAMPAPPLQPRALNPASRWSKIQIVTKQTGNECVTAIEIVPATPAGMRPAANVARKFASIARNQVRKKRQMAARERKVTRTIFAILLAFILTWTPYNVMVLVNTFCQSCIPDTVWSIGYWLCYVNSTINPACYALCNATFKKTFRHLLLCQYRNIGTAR
quantity name: Emax

* O=C(O[C@@H]1CCOC1)N1C2CCC1CC(N1CCC3(CC1)C(=O)Nc1ccccc13)C2 (stereo partly shown) | < 55%
* c1ccc2c(c1)NCC21CCN(C2CC3CCC2C3)CC1 (stereo not shown) | > 70%
* CN(C)C(=O)N1CC2(CCN(C3CCN(c4cnccn4)CC3)CC2)c2cc(F)ccc21 | 55 to 70%

Proceeding to the next molecule to report its Emax.
[Q] Which Emax is reported for this molecule? CCOC(=O)N1CCC(N2CCC3(CC2)CN(C(=O)c2ccccc2OC)c2ccc(F)cc23)CC1
[A] < 55%

====

Parameter: Emax. Scope: all listed entries.
biological target: M1 muscarinic receptor (Homo sapiens, UniProt P11229); construct: expressed in transfected cells; host or cells: CHO cells (M1-CHO, under zeocin and G418 selection); assay: Functional mobilization of intracellular calcium (FLIPR, Fluo-3), M1-CHO cells; type: cell-based; settings: compound nos. 1-454; 100% efficacy is the maximum response obtained with the Carbachol control; read-out: M1 Efficacy
Sequence (P11229 whole entry): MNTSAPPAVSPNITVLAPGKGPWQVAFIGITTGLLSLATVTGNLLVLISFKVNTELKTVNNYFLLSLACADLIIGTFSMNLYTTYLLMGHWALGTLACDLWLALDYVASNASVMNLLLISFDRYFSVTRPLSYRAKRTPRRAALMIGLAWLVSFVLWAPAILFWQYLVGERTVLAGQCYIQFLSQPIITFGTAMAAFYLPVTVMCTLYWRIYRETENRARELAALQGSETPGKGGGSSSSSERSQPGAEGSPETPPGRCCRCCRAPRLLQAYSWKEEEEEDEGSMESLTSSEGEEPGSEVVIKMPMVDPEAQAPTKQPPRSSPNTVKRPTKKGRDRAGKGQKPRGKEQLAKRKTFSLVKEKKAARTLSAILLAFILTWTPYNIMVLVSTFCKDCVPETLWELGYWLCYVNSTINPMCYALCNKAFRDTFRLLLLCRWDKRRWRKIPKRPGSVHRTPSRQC

[Q] Item CN(C)C(=O)N1C2CCC1CC(N1CCC3(CC1)COc1ccc(F)cc13)C2 (centres unmarked) has what recorded Emax?
[A] 65 to 85%

[Q] Can you share its Emax? I mean this compound: CCOC(=O)N1C2CCC1CC(N1CCC3(CC1)CN(C(C)=O)c1ccc(Cl)cc13)C2 (centres unmarked)
[A] < 65%

[Q] Which Emax reading was recorded for the compound CCOC(=O)N1C2CCC1CC(N1CCC3(CC1)CN(C(=O)c1ccc(F)cc1)c1ccc(F)cc13)C2 (centres unmarked) ?
[A] < 65%

[Q] Any idea what Emax was measured for COCCOC(=O)N1CCC(CN2CCC3(CC2)C[C@H](NC(C)=O)c2ccccc23)CC1 ?
[A] < 65%

[Q] Any idea what its Emax is? The compound is CC(C)OC(=O)N1C2CCC1CC(N1CCC3(CC1)C(=O)Nc1ccccc13)C2 (centres unmarked)
[A] > 85%

[Q] Name the recorded Emax for COCCOC(=O)N1C2CCC1CC(N1CCC3(CC1)CN(C(=O)OC)c1ccc(F)cc13)C2 (centres unmarked) .
[A] > 85%

[Q] So what does the record say about Emax for CCOC(=O)N1CCC(N2CCC3(CC2)CN(C(=O)c2ccccc2)c2ccc(F)cc23)CC1 ?
[A] < 65%

[Q] If you can, please state the reported Emax value of O=C(OCC1CCCO1)N1C2CCC1CC(N1CCC3(CC1)COc1ccc(F)cc13)C2 (centres unmarked) .
[A] < 65%

====

molecular target: M1 muscarinic receptor (Homo sapiens, UniProt P11229); construct: expressed in transfected cells; host or cells: CHO cells (M1-CHO, under zeocin and G418 selection); experiment: Functional mobilization of intracellular calcium (FLIPR, Fluo-3), M1-CHO cells; format: cell-based; settings: compound nos. 1-454; 100% efficacy is the maximum response obtained with the Carbachol control; read-out: M1 Efficacy
quantity name: Emax

- Clc1ccc2c(c1)C1(CCN(CC3CCCCC3)CC1)CN2: 65 to 85%

[Q] Recorded Emax for CCOC(=O)N1C2CCC1CC(N1CCC3(CC1)CN(S(C)(=O)=O)c1ccc(F)cc13)C2 (stereo not drawn) , please?
[A] 65 to 85%

[Q] # query: Emax of entry CC(=O)N1CC2(CCN(CC3CCOC3)CC2)c2cc(F)ccc21 (stereo not drawn)
[A] > 85%

[Q] Report Emax for CCOC(=O)N1CCC(N2CCC3(CC2)CN(C(=O)C2CCCCC2)c2ccc(F)cc23)CC1 please.
[A] < 65%

[Q] If you can, please state the reported Emax value of Cc1cc(C(=O)N2CC3(CCN(C4CC5CCC(C4)N5C(=O)O[C@H]4CCOC4)CC3)c3cc(F)ccc32)nn1C (stereo partly drawn) .
[A] 65 to 85%
